Tested on: KPL4
EXPERIMENT SUMMARY: MTT assay, cytotoxicity of metabolites, KPL4
Format: cell-based
CONDITION INFO: KPL4, 96 h, 96 h incubation
Checkbox rule: IC50 lower than 200 nM = condition met; IC50 not lower than 200 nM = condition not met.

COMPOUND: CC(C)(C)[C@H](c1cc(-c2cc(F)ccc2F)cn1Cc1ccccc1)N(CC[C@H](N)C(=O)NCCNC(=O)CSC[C@H](N)C(=O)O)C(=O)CO
MEASURED TARGET: KPL4
GROUP: condition met
//
COMPOUND: CC(C)(C)[C@H](c1cc(-c2cc(F)ccc2F)cn1Cc1ccccc1)N(CC[C@H](N)C(=O)NCCNC(=O)CNC(=O)CC(SC[C@H](N)C(=O)O)C(=O)O)C(=O)CO (some centres unmarked) [Example M13]
MEASURED TARGET: KPL4
GROUP: condition met
//
COMPOUND: CC(C)(C)[C@H](c1cc(-c2cc(F)ccc2F)cn1Cc1ccccc1)N(CC[C@H](N)C(=O)NCCNC(=O)CNC(=O)C(CC(=O)O)SC[C@H](N)C(=O)O)C(=O)CO (single isomer, unassigned)
MEASURED TARGET: KPL4
GROUP: condition met
//
COMPOUND: CC(C)(C)[C@H](c1cc(-c2cc(F)ccc2F)cn1Cc1ccccc1)N(CC[C@H](N)C(=O)NCCOCCN1C(=O)CC(SC[C@H](N)C(=O)O)C1=O)C(=O)CO (some centres unmarked)
MEASURED TARGET: KPL4
GROUP: condition met
//
COMPOUND: CC(C)(C)[C@H](c1cc(-c2cc(F)ccc2F)cn1Cc1ccccc1)N(CC[C@H](N)C(=O)NCCNC(=O)CNC(=O)CC(SC[C@H](N)C(=O)O)C(=O)O)C(=O)CO (single isomer, unassigned) [Example M14]
MEASURED TARGET: KPL4
GROUP: condition met
//
COMPOUND: CC(C)(C)C(c1cc(-c2cc(F)ccc2F)cn1Cc1ccccc1)N(CC[C@H](N)C(=O)NCCNC(=O)CN1C(=O)CC(SC[C@H](N)C(=O)O)C1=O)C(=O)CO.O=C(O)C(F)(F)F (some centres unmarked)
MEASURED TARGET: KPL4
GROUP: condition not met
//
COMPOUND: CC(C)(C)[C@H](c1cc(-c2cc(F)ccc2F)cn1Cc1ccccc1)N(CC[C@H](N)C(=O)NCCC(=O)N[C@H](CCC(=O)O)C(=O)O)C(=O)CO
MEASURED TARGET: KPL4
GROUP: condition not met
//
COMPOUND: CC(C)(C)[C@H](c1cc(-c2cc(F)ccc2F)cn1Cc1ccccc1)N(CC[C@H](N)C(=O)NCCC(=O)N[C@@H](CCC(=O)O)C(=O)O)C(=O)CO
MEASURED TARGET: KPL4
GROUP: condition not met
